Target: T1, human IGSF11 (VSIG3) expressed on cells (human, UniProt Q5DX21 23-431)
T1 sequence: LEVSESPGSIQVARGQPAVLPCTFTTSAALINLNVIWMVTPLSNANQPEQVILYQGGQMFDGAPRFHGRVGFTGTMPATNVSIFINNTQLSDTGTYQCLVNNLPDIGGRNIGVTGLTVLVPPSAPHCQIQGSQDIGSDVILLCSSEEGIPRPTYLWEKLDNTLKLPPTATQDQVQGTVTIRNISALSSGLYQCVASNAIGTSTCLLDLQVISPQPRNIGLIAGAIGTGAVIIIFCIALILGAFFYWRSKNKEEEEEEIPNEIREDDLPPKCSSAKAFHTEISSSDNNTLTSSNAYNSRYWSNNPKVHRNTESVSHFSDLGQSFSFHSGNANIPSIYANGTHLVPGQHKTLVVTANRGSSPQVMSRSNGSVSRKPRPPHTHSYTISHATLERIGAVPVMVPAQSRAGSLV
Test: FACS, DMS 273 cells with IGSF11 siRNA (KD, knock-down control)
readout-type: % binding (FACS heat-map)
Please report the result as a number followed by the unit.

Past entries and their recorded results:
A-027 (IgG1 format) (antibody, V domains shown, human IgG1 format) VH: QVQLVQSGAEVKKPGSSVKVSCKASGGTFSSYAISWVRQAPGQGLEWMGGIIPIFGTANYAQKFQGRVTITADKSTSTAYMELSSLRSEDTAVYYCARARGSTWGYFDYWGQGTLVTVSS VL: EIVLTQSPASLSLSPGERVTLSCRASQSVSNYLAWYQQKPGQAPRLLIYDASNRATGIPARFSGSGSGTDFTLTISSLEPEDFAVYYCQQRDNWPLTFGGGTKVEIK ... 2.63%
A-011 (IgG1 format) (antibody, V domains shown, human IgG1 format) VH: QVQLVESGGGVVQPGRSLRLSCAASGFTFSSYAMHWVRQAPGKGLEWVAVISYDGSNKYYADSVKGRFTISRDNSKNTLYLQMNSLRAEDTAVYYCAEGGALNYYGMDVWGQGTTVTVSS VL: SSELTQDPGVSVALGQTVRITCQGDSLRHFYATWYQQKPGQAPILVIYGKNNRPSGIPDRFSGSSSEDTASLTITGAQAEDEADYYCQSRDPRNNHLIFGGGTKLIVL ... 3.4%
A-006 (IgG1 format) (antibody, V domains shown, human IgG1 format; also called A-006-like ABP) VH: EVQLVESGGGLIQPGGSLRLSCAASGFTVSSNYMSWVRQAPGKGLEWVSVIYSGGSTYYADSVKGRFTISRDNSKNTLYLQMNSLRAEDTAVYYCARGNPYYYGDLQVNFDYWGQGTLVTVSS VL: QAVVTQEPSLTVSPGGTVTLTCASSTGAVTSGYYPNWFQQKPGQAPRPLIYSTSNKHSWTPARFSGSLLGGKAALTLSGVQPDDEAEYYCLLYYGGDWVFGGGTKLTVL ... 5.72%

Consider the additional binder presented here.
Query: I would be grateful if you could share the reported % binding (FACS heat-map) for A-012 (IgG1 format) (antibody, V domains shown, human IgG1 format) VH: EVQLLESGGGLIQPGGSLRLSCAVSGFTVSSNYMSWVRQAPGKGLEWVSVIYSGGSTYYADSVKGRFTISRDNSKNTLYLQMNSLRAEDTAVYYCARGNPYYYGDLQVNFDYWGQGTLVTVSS VL: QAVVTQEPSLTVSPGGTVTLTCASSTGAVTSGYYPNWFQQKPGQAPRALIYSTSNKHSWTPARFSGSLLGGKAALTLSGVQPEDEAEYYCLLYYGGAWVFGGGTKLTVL .
Result: 4.77%
